The measured values listed here are drawn from the supplement of paper PMC11061612.

Item-by-item account of Bliss excess
# System: PANC-10-05 (Pancreatic Carcinoma)
# Protocol summary: Bliss excess, mean over the matrix (fraction); higher = more synergy;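 note: after 72 h of two-drug dosing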
Quantity: Bliss excess

- CC(=O)Nc1cccc(-n2c(=O)n(C3CC3)c(=O)c3c(Nc4ccc(I)cc4F)n(C)c(=O)c(C)c32)c1 [Trametinib] + Cc1nc(-c2cn3c(n2)-c2ccc(-c4cnn(C(C)(C)C(N)=O)c4)cc2OCC3)n(C(C)C)n1 [Taselisib] (first compound max 1 µM, 7x7, partner max 10 µM): 0.0968
- CC1(C)CCC(CN2CCN(c3ccc(C(=O)NS(=O)(=O)c4ccc(NCC5CCOCC5)c([N+](=O)[O-])c4)c(Oc4cnc5[nH]ccc5c4)c3)CC2)=C(c2ccc(Cl)cc2)C1 [Venetoclax] + Cn1cnc2c(F)c(Nc3ccc(Br)cc3Cl)c(C(=O)NOCCO)cc21 [Selumetinib] (first compound max 1 µM, 7x7, partner max 3 µM): -0.0386
- C[C@@H](Nc1cc(F)cc(F)c1)c1cc(C(=O)N(C)C)cc2c(=O)cc(N3CCOCC3)oc12 [AZD8186] + C1CN(CCC1(C(=O)N[C@@H](CCO)C2=CC=C(C=C2)Cl)N)C3=NC=NC4=C3C=CN4 [AZD5363] (first compound max 10 µM, 7x7, partner max 10 µM): -0.0847

====

# Test system: JSC-1 (B-Cell Non-Hodgkin's Lymphoma)
# Protocol summary: Bliss excess, mean over the matrix (fraction); higher = more synergy
Use 0.05 as the dividing line for Bliss excess, with the line itself on the label 1 side and lower values as label 0.

• CC(=O)c1c(C)c2cnc(Nc3ccc(N4CCNCC4)cn3)nc2n(C2CCCC2)c1=O [Palbociclib] + Cc1c2c(nn1C)CSCc1cc(n(C)n1)CSc1cc(c3ccccc3c1)OCCCc1c(C(=O)O)n(C)c3c-2c(Cl)ccc13 [AZD5991] (first compound max 10 µM, 7x7, partner max 1 µM) = label 0
• COc1cccc(OCCCN)c1-c1cc(Nc2cnc(C#N)cn2)n[nH]1 [Prexasertib] + Cc1cc2ncnn2cc1Nc1ncc2c(n1)n(C1CCOCC1)c(=O)n2C [AZD7648] (first compound max 1 µM, 7x7, partner max 10 µM) = label 0
• COc1nnc2ccc(N3CCC(c4ccc(OCCN5CCN(C)C(=O)[C@H]5C)cc4)CC3)nn12 [AZD5153] + CN(CC[C@H](CSC1=CC=CC=C1)NC2=C(C=C(C=C2)S(=O)(=O)NC(=O)C3=CC=C(C=C3)N4CCC(CC4)[C@H](C5=CC=CC=C5C6=CC=C(C=C6)Cl)O)S(=O)(=O)C(F)(F)F)CCO [AZD4320] (first compound max 1 µM, 7x7, partner max 1 µM) = label 0
• Cn1cnc2c(F)c(Nc3ccc(Br)cc3Cl)c(C(=O)NOCCO)cc21 [Selumetinib] + CCN(CCO)CCCOc1ccc2c(Nc3cc(CC(=O)Nc4cccc(F)c4)[nH]n3)ncnc2c1 [AZD2811] (first compound max 10 µM, 7x7, partner max 1 µM) = label 1

====

Item-by-item account of Bliss excess
# Tested on: SK-MES-1 (Squamous Cell Lung Carcinoma)
# Protocol summary: Bliss excess, mean over the matrix (fraction); higher = more synergy
Quantity: Bliss excess

- CN(C)CCCOc1ccc(-c2ccc3ncc4c(c3c2)n(C2CCOCC2)c(=O)n4C)cn1 [AZD0156] + O=C(c1cc(Cc2n[nH]c(=O)c3ccccc23)ccc1F)N1CCN(C(=O)C2CC2)CC1 [Olaparib] (first compound max 3 µM, partner max 3 µM): -0.0199
- NC1(C(=O)N[C@@H](CCO)c2ccc(Cl)cc2)CCN(c2ncnc3[nH]ccc23)CC1 [Capivasertib] + CCN(CCO)CCCOc1ccc2c(Nc3cc(CC(=O)Nc4cccc(F)c4)[nH]n3)ncnc2c1 [AZD2811] (first compound max 10 µM, 7x7, partner max 1 µM): 0.0121
